- Tested on: COLO 205
- experiment description: NCI tumour cell line growth inhibition, 48 h
Calls of active or inactive are those of the source. Rule as the data show it: active = GI50 up to about 1.1 µM and inactive = higher.
Labels: True for active, False for inactive

# molecule, answer label
data = [
    ("CC1=C2C(=C[C@@](C)(CO)[C@@H]2O)C(=O)[C@](C)(O)C12CC2", "True"),
    ("O=c1c2ccccc2[nH]c(=S)n1-c1ccc(/N=N/c2cccc3cc(O)ccc23)cc1", "False"),
    ("Cc1ccc(S(=O)(=O)NN=C2CCCCCCCCCCC2)cc1", "False"),
    ("O=C(O)C(Br)C(Br)C(=O)O (centres undefined)", "False"),
    ("COC1=C(Br)[C@H](O)[C@@]2(C=C1Br)CC(C(=O)NCCCOc1c(Br)cc(C(O)CNC(C)=O)cc1Br)=NO2 (some centres undefined)", "False"),
    ("N#CN=C(N(Cc1ccccc1)Cc1ccccc1)N(Cc1ccccc1)Cc1ccccc1", "False"),
    ("COC(=O)C1CCC(=O)N1C(c1ccc2c(c1)OCO2)c1cc(OC)c(OC)c(OC)c1 (centres undefined)", "False"),
    ("C=CC(=O)N1C/C(=C\\c2ccc([N+](=O)[O-])cc2)C(=O)/C(=C/c2ccc([N+](=O)[O-])cc2)C1", "True"),
    ("CNn1c(C)n[nH]c1=O", "False"),
]

* * *

- Tested on: SW-620
- experiment description: NCI tumour cell line growth inhibition, 48 h
Activity calls are given as the source filed them. Rule as the data show it: active = GI50 up to about 1.1 µM and inactive = higher.

# compound, system tested, GI50
measured = [
    ("Nc1nc(N)c2ncn(-c3ccccc3)c2n1", "SW-620", "> 100 µM (inactive)"),
    ("Cc1ccc(Nc2n[nH]c(NS(=O)(=O)c3cc(C)c(Cl)cc3S)n2)cc1", "SW-620", "> 100 µM (inactive)"),
    ("O=c1[nH]cc(/C=N\\Nc2ccccc2)c(=O)[nH]1", "SW-620", "> 100 µM (inactive)"),
    ("CC1(C)OC[C@@H](O)[C@H](Br)CO1", "SW-620", "> 100 µM (inactive)"),
    ("COc1cccc(-c2[nH]c3cc4c(cc3c(=O)c2C(=O)O)OCO4)c1", "SW-620", "29 µM (inactive)"),
    ("Cc1ccc(NC(=O)/C(=N\\Nc2ccc([N+](=O)[O-])cc2[N+](=O)[O-])C2C(=O)NC(=O)NC2=O)cc1", "SW-620", "45.7 µM (inactive)"),
]

* * *

- Tested on: SF-539
- experiment description: NCI tumour cell line growth inhibition, 48 h
Calls of active or inactive are those of the source. Rule as the data show it: active = GI50 up to about 1.1 µM and inactive = higher.
Outcomes: y = active, n = inactive

# compound, answer label
measured = [
    ("O=C(O)C1CC2C3CCC2C1C3=O (stereo unspecified)", "n"),
    ("COc1cc(C2c3cc4c(cc3C(NCC(O)CO)C3COC(=O)[C@H]23)OCO4)cc(OC)c1OC (stereo partly specified)", "y"),
    ("CC1/C(=N\\O)CC(c2ccccc2)N(C)C1c1ccccc1 (stereo unspecified)", "n"),
    ("COC(=O)C(=O)C(C(=O)OC)C(=O)C(=O)Nc1cc(Cl)c(Cl)cc1Cl (stereo unspecified)", "n"),
    ("O=C1CCCc2ccc3c(c21)CC1(Cc2ccccc2C1)C3", "n"),
    ("CSC1=Nc2ccccc2N(C)c2c1c(-c1ccccc1)nn2C", "n"),
    ("CC(=O)Oc1c2c(c(OC(C)=O)c3c1n(C(C)=O)c1ccccc1n3C(C)=O)n(C(C)=O)c1ccccc1n2C(C)=O", "n"),
    ("CC(=O)c1cccc(NC(=O)C(=O)C(C(=O)c2ccccc2F)C2OC(=O)c3ccccc32)c1 (stereo unspecified)", "n"),
    ("CC1(C)OCC[C@@H]1[Si](C)(C)C", "n"),
    ("O=S(=O)(N/N=C/c1c(Cl)cccc1Cl)c1ccccc1", "n"),
    ("Fc1cccc(CSc2ncnc3c2ncn3C2CCCS2)c1 (stereo unspecified)", "n"),
]

The measured values listed here are drawn from ChEMBL document CHEMBL1201862.
